pKi overview
- Target of assay: human kisspeptin receptor (KISS1R) (human) (UniProt Q969F8)
- Sequence (Q969F8 whole entry): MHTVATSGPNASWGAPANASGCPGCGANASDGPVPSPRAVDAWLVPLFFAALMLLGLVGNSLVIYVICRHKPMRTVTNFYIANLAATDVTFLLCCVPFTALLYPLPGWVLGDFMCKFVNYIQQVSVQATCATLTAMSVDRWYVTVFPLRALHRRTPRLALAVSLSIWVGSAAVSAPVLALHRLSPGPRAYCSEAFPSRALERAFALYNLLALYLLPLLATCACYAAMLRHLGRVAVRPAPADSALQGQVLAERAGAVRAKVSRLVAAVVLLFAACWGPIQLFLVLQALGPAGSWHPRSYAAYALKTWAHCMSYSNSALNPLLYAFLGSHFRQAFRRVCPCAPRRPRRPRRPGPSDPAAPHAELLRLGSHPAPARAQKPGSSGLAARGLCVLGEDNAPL
- Test method notes: radioligand competition, hKISS1R membranes; legend: A is <10 nM
pKi: −log10 of the molar value. Square brackets hold non-standard residues; d marks the D form. * marks the point of attachment. DOTA = O=C(O)CN1CCN(CC(=O)O)CCN(CC(=O)*)CCN(CC(=O)O)CC1; Api(1-amidino) = N=C(N)N1CCC(N)(C(=O)O)CC1; d2Nal = N[C@H](Cc1ccc2ccccc2c1)C(=O)O; Cha = N[C@@H](CC1CCCCC1)C(=O)O; Ahx = NCCCCCC(=O)O; azaGly = NNC(=O)O

binder="{DOTA-Ahx}-[dY][d2Nal]NTF[azaGly]L[Api(1-amidino)]W-NH2 [Compound 269]" result="> 8.00"
binder="{DOTA-Ahx}-[dK](4‑(p-tolyl)butanoyl)[dY][d2Nal]NTF[azaGly]L[Api(1-amidino)]F-NH2 [Compound 309]" result="> 8.00"

Input: Data request, read-out pKi, for {DOTA-Ahx}-[dY][d2Nal]NT[Cha][azaGly]L[Api(1-amidino)]W-NH2 (SMILES CC(C)C[C@H](NC(=O)NNC(=O)[C@H](CC1CCCCC1)NC(=O)[C@@H](NC(=O)[C@H](CC(N)=O)NC(=O)[C@@H](Cc1ccc2ccccc2c1)NC(=O)[C@@H](Cc1ccc(O)cc1)NC(=O)CCCCCNC(=O)CN1CCN(CC(=O)O)CCN(CC(=O)O)CCN(CC(=O)O)CC1)[C@@H](C)O)C(=O)NC1(C(=O)N[C@@H](Cc2c[nH]c3ccccc23)C(N)=O)CCN(C(=N)N)CC1) [Compound 317]
Output: > 8.00
